- METHOD NOTES: A549 lung cancer cell viability effects, profiling panel, resazurin fluorescence, 24 h, PK04 Diversity Set (AID 1171); further: test concentration not given here
- CONDITION INFO: higher = more signal, called active from +8 up or from −8 down
Classification field: Satisfied = z-score at or over -0.6; Not satisfied = z-score under -0.6.

Below, 4 compounds whose answers are already recorded.
COc1ccc(O[C@H]2C=C[C@@H](c3ccccc3)O[C@@H]2COC(=O)NCc2cccc3ccccc23)cc1 ... Satisfied
C[C@@H](c1ccccc1)N1C(=O)[C@H]2[C@H]3[C@H](O)[C@H](O)CC(=NOC[C@@H](O)COCc4ccco4)[C@H]3CC[C@H]2C1=O ... Satisfied
CC(CCN1CCCc2nc(C)c(C)cc21)=NOC[C@@H](O)COCc1ccco1 ... Satisfied
COc1cccc([C@H]2Oc3ccc(OC)cc3C(=NOCC[C@@H]3C=C[C@H](OC(C)=O)[C@@H](COC(C)=O)O3)[C@@H]2O)c1 ... Not satisfied

Q. Assess whether reported z-score for `CCOC(=O)NN=C1C[C@@H](O)[C@@H](O)[C@@H]2[C@@H]3C(=O)N(c4ccc(F)cc4F)C(=O)[C@@H]3CC[C@H]12` sits at -0.6 or higher.
A. Satisfied

====

- System: wheat germ agglutinin (Triticum aestivum), Alexa647-labelled
- METHOD NOTES: wheat germ agglutinin binders on compound microarrays, profiling panel, artefact control for SMM control-protein annotation, biochemical, small-molecule microarray, 635/667 nm fluorescence (AID 1140);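 further: score merges 667 nm feature emission with signal to noise over triplicate slides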
- CONDITION INFO: WGA-A647 binding, 635 nm fluorescence, higher = more signal
Listed compounds paired with reported composite z-score
Could you keep your reply to the number by itself?

CO[C@H]1COC(=O)CCC[C@H](C)[C@@H](OC)COC(=O)CC=C[C@@H]1C ... -0.181
CCOC(=O)[C@H](CC(C)C)NC(=O)CCC1CC(OC(=O)NCCc2ccc(F)cc2)CC2(CCCC(COC(=O)NCCCN3CCCC3=O)O2)O1 (stereo not given in full) ... 0.205
COC(=O)CC=C[C@@H](C)[C@@H](C=NOC(C)CN1CCCc2nc(C)c(C)cc21)NS(=O)(=O)c1ccc(C)cc1 (stereo not given in full) ... 0.11
CCN1C(=O)[C@H]2[C@H]3[C@H](O)[C@H](O)CC(=NO[C@H](C)c4cn([C@@H]5COC[C@H]5O)nn4)[C@@H]3CC[C@H]2C1=O ... -0.215
C[C@@H](c1ccccc1)N1C(=O)[C@H]2[C@H]3[C@H](O)[C@H](O)CC(=NOC[C@@H](O)COCc4ccco4)[C@H]3CC[C@H]2C1=O ... 0.0723
CC(=O)OC[C@H]1O[C@H](CC=NO[C@@H](C)c2cn([C@H](CO)Cc3ccccc3)nn2)C=C[C@@H]1OC(C)=O ... 0.233
CC(CCN1CCCc2nc(C)c(C)cc21)=NO[C@H](C)c1cn([C@H](CO)Cc2ccccc2)nn1 ... 0.108
CCN1C(=O)[C@H]2[C@H]3[C@H](O)[C@H](O)CC(=NOCC(C)C)[C@H]3CC[C@H]2C1=O ... -0.312

Q. For `CC#CCOCCC=C1c2ccccc2[C@@H](OC)[C@@H]1C` , write its composite z-score.
A. 0.725

Q. Quick one: give measured composite z-score for `CC(CCC(=O)OC[C@H]1O[C@H](C#Cc2ccccc2)C=C[C@@H]1Oc1ccc(C)cc1)=NOC[C@@H](C)[C@H](OCc1ccccc1)C(C)C`
A. -0.726

Q. Dear colleague, please send me the reported composite z-score for `CC(C)CON=C1C[C@@H](O)[C@@H](O)[C@@H]2[C@@H]3C(=O)N(c4ccc(F)cc4F)C(=O)[C@@H]3CC[C@@H]12` when you can.
A. -0.0433

Q. Annotate the compound CCOC(=O)[C@H](Cc1ccccc1)NC(=O)CCC1CC(OC(=O)NCCc2ccc(F)cc2)CC2(CCCC(COC(=O)NCCOc3ccccc3)O2)O1 (stereo not given in full) with its measured composite z-score.
A. 0.362

Q. Indicate its recorded composite z-score; the compound in question is `CCCNC(=O)OC[C@H]1O[C@H](CCON=C[C@@H](C)[C@H](OCc2ccccc2)C(C)C)C=C[C@@H]1Oc1ccc(OC)cc1`
A. -0.199

Q. Name the recorded composite z-score of the item `C[C@H]1CC[C@@H](C(=O)O)N[C@@H]1c1cccc(N2CCCC2=O)c1` in your answer.
A. -0.368

Q. Answer with reported composite z-score of `CC(=O)OC[C@H]1O[C@@H](ON=C(C)CCN2CCCCc3nc(C)c(C)cc32)[C@H](OC(C)=O)[C@@H](OC(C)=O)[C@@H]1OC(C)=O`
A. 0.162

====

- Test system: Chordin-like protein 2 (CHRDL2)
- METHOD NOTES: CHRDL2 small-molecule binders, primary screen, biochemical, small-molecule microarray, 635 nm fluorescence (AID 1126);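 further: printed compound slides probed with Chrdl2 protein at 4 µg/mL for 1 h at 4 C; score merges 667 nm emission intensity with signal to noise over three replicate slides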
- CONDITION INFO: small-molecule microarray binding, fluorescence 635 nm; higher = more signal
Response key: rule met means composite z-score >= 0.4; rule not met means composite z-score < 0.4.

Q. Given `CC(CCN1CCc2nc(-c3ccccc3)c(-c3ccccc3)cc2C1)=NO[C@H](C)c1cn([C@H](CO)Cc2ccccc2)nn1` , state whether its composite z-score is at least 0.4.
A. rule not met

Q. Quick check: does `CON=C(C)CCN1CCc2nc(-c3ccccc3)c(-c3ccccc3)cc2C1` have composite z-score greater than or equal to 0.4?
A. rule not met

Q. Kindly determine if composite z-score recorded for `O=C1[C@H]2CCn3c(=O)n(Cc4cc5c(cc4Cl)OCO5)c(=O)n3[C@H]2[C@H](O)[C@@H]2O[C@H]12` is above or exactly 0.4.
A. rule met

Q. Decide: composite z-score of COCCNC(=O)OCC1CCCC2(CC(OC(=O)NCc3cccc4ccccc34)CC(CCC(=O)N[C@@H](C)C(=O)OC)O2)O1 (some centres not stated) >= 0.4?
A. rule met

Q. Please check the record `COC(=O)[C@H](CCSC)NC(=O)CC=C[C@@H](C)CO` and state if its composite z-score is at or above 0.4.
A. rule met

====

- METHOD NOTES: modulators of S6 phosphorylation in cells, primary screen, cell-based, A549, cytoblot, luminescence, serum-stimulated (AID 1158);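 further: serum-stimulated A549 lung adenocarcinoma cells; signal is phosphorylated S6 detected by cytoblot immunostaining with HRP secondary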
- CONDITION INFO: A549 phospho-S6 cytoblot, 5 h, higher = more signal
ENDPOINT: z-score
Field format: numeric only.

Reference set (3 entries):
CCOC(=O)[C@H](Cc1ccccc1)NC(=O)CCC1CC(OC(=O)NCCc2ccc(F)cc2)CC2(CCCC(COC(=O)NCc3cccc(C(F)(F)F)c3)O2)O1 (some centres undefined) ... -0.354
COC(=O)[C@H](C)NC(=O)CCC1CC(OC(=O)NCc2ccc3c(c2)OCO3)CC2(CCCC(COC(=O)NCCC(C)C)O2)O1 (some centres undefined) ... 0.392
CC(CCN1CCCc2nc(C)c(C)cc21)=NOC[C@@H](C)[C@H](OCc1ccccc1)C(C)C ... 2

Q. Report measured z-score; entry is `CON=C[C@@H](OC)[C@H](C)C=CCC(=O)OC`
A. 0.279

====

- METHOD NOTES: CREB reporter modulators under forskolin, primary screen, cell-based, PC12, CRE-LacZ reporter, forskolin-stimulated (AID 1146);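 further: PC12 cells with 6xCRE LacZ reporter stimulated by forskolin 10 µM; beta-galactosidase reporter signal reflecting CREB driven transcription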
- CONDITION INFO: luminescence, 4.5 h, higher = more signal, called active from +8 up or from −8 down
The entries below come with measured z-score values attached.
Give the figure only, with no unit attached.

Examples from the recorded data:
OC[C@H]1O[C@H](C#Cc2ccccc2)C=C[C@@H]1O ... 0.186
COC(=O)[C@H](C)NC(=O)CCC1CC(OC(=O)NCc2ccc3c(c2)OCO3)CC2(CCCC(COC(=O)NCCCN3CCCC3=O)O2)O1 (some centres undefined) ... 0.833
CC(C)[C@@H](OCc1ccccc1)[C@H](C)C=NO[C@@H](C)c1cn([C@H](CO)Cc2ccccc2)nn1 ... -0.0785

Please examine the following record next.
Q. Kindly indicate its recorded z-score. Item: CC1(C)O[C@H]2OC([C@H](O)CON3C(=O)c4ccccc4C3=O)[C@H](O)[C@H]2O1 (some centres undefined)
A. 0.266

====

- STUDY TARGET: Follistatin (Homo sapiens) (UniProt P19883)
- Sequence (P19883 whole entry, looked up): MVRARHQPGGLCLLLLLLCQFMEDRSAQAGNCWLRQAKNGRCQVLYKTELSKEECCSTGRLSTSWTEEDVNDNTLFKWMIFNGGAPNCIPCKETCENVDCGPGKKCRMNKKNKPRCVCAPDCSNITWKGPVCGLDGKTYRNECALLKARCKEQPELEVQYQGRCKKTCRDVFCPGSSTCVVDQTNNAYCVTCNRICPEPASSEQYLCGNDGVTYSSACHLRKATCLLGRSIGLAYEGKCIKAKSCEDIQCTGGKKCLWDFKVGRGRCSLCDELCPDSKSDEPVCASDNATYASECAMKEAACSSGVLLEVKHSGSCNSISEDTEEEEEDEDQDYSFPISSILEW
- METHOD NOTES: follistatin binders on small-molecule microarrays, primary screen, biochemical, small-molecule microarray, 635/667 nm fluorescence (AID 1132)
- CONDITION INFO: FST binding, 635 nm fluorescence, higher = more signal
Output: class label from composite z-score. Mapping: class 1 (below 0.4), class 2 (0.4 to below 0.7), class 3 (0.7 or more)

O=C1[C@H]2[C@H]3[C@H](O)[C@H](O)CC(=NO[C@@H]4O[C@H](CO)[C@@H](O)[C@H](O)[C@H]4O)[C@@H]3CC[C@H]2C(=O)N1c1cccc(Oc2ccccc2)c1 ... class 3
CC(=O)OC[C@H]1O[C@H](CC=NOC(C)CN2CCCc3nc(C)c(C)cc32)C=C[C@@H]1OC(C)=O (stereo partly specified) ... class 3
COc1ccc(COC(=O)NN=C2C[C@@H](O)[C@@H](O)[C@@H]3[C@@H]4C(=O)N(Cc5ccccc5)C(=O)[C@@H]4CC[C@@H]23)cc1 ... class 1
O=C1C[C@@H](O)[C@@H](O)[C@@H]2[C@@H]3C(=O)N(c4ccc(F)cc4F)C(=O)[C@@H]3CC[C@H]12 ... class 2
COC(=O)CC=C[C@@H](C)[C@@H](C=NOC[C@@H](C)[C@H](OCc1ccccc1)C(C)C)OC ... class 1

Q. Sort `CC(C)CON=C1C[C@@H](O)[C@@H](O)[C@@H]2[C@@H]3C(=O)N(Cc4ccccc4)C(=O)[C@@H]3CC[C@H]12` into one of the categories.
A. class 1

Q. Field: class (composite z-score) — entry: `CON=C(C)CCN1CCc2nc(-c3ccccc3)c(-c3ccccc3)cc2C1`
A. class 3
